Test system: T1, rhesus monkey TfR ectodomain fused to a mouse IgG1 Fc fragment (rhesus monkey, UniProt I0FKY7 89-760)
T1 construct: extracellular domain; not shown: mouse IgG1 Fc fragment
Assay overview: SPR, kinetic
# kon values compiled below
# value in M⁻¹ s⁻¹; strip the unit string

The examples below pair each entry with its known result.
B8^V27 (VHH) VHH: EVQLVESGGGVVQPGGSLRLSCAASGEIFSINFMRWYRQAPGKQREWVAGFTRDGSTVYPDSAKGRFTISRDNAKNTVYLQIDSLKPEDTAVYYCYMLDTWGQGTQVTVSS    455000
B8^V35 (VHH) VHH: EVQLVESGGGVVQPGGSLRLSCAASGEIRSINFMRWYRQAPGKQREWVAGFTRDGSLNYPDSAKGRFTISRDNAKNTVYLQIDSLKPEDTAVYYCYMLDTWGKGTQVTVSS    898000
B8^V39 (VHH) VHH: EVQLVESGGGVVQPGGSLRLSCAASGEIFKINFMRWYRQAPGKQREWVAGFTRDGSTNYPDSAKGRFTISRDNAKNTVYLQIDSLKPEDTAVYYCYMLDTWGQGTQVTVSS    362000
C5^V30 (VHH) VHH: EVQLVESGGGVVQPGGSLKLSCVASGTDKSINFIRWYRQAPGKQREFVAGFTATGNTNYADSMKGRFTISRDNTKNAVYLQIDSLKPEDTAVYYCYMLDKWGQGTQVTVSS    515000
B8^V38 (VHH) VHH: EVQLVESGGGVVQPGGSLRLSCAASGEIRSINFMRWYRQAPGKQREWVAGFTRTGSTNYPDSAKGRFTISRDNAKNTVYLQIDSLKPEDTAVYYCYMLDTWGQGTQVTVSS    549000

GET /values?readout=kon&item= C5^V27 (VHH) VHH: EVQLVESGGGVVQPGGSLKLSCVASGADFSINYIRWYRQAPGKQREFVAGFTATGNTNYADSMKGRFTISRDNTKNAVYLQIDSLKPEDTAVYYCYMLDKWGQGTQVTVSS
332000

// repeat for C10a (VHH) VHH: EVQLVESGGGLVQAGDSLRLSCAASGFASHLYAIGWFRQAPGKEREKVSCISSNDGSTYYADSVKGRFTISRDTVKDMVYLQMNSLKPEDTAVYYCATDLTVHCFMAEYDWWGQGTQVTVSS and report
903000

// repeat for C5^V32 (VHH) VHH: EVQLVESGGGVVQPGGSLKLSCVASGTDFSINFIRWYSQAPGKQREFVAGFTATGNTNYADSMKGRLTISRDNTKNAVYLQIDSLKPEDTAVYYCYMLGKWGQGTQVTVSS and report
745000
